Conditions: in methanol, 303.15 K
measured_attribute: solubility (mole fraction)

- smiles_notation: "CNC(=O)c1cc(Oc2ccc(NC(=O)Nc3ccc(Cl)c(C(F)(F)F)c3)c(F)c2)ccn1"
  reported: 0.000581

* * *

Settings: in isopropanol, 308.15 K

- smiles_notation: "CNC(=O)c1cc(Oc2ccc(NC(=O)Nc3ccc(Cl)c(C(F)(F)F)c3)c(F)c2)ccn1"
  solubility (mole fraction): 0.00137

* * *

Settings: in ethanol, 313.15 K
measured_attribute: solubility (mole fraction)

- smiles_notation: "CNC(=O)c1cc(Oc2ccc(NC(=O)Nc3ccc(Cl)c(C(F)(F)F)c3)c(F)c2)ccn1"
  reported: 0.00145

* * *

Details: in isopropanol, 293.15 K

- smiles_notation: "CNC(=O)c1cc(Oc2ccc(NC(=O)Nc3ccc(Cl)c(C(F)(F)F)c3)c(F)c2)ccn1"
  solubility (mole fraction): 0.000769

* * *

Settings: in methanol, 313.15 K

- smiles_notation: "CNC(=O)c1cc(Oc2ccc(NC(=O)Nc3ccc(Cl)c(C(F)(F)F)c3)c(F)c2)ccn1"
  solubility (mole fraction): 0.000797

* * *

Conditions: in acetone, 308.15 K

- smiles_notation: "CNC(=O)c1cc(Oc2ccc(NC(=O)Nc3ccc(Cl)c(C(F)(F)F)c3)c(F)c2)ccn1"
  solubility (mole fraction): 0.00443

* * *

Details: in acetone, 288.15 K

- smiles_notation: "CNC(=O)c1cc(Oc2ccc(NC(=O)Nc3ccc(Cl)c(C(F)(F)F)c3)c(F)c2)ccn1"
  solubility (mole fraction): 0.00199

* * *

Details: in acetone, 303.15 K
measured_attribute: solubility (mole fraction)

- smiles_notation: "CNC(=O)c1cc(Oc2ccc(NC(=O)Nc3ccc(Cl)c(C(F)(F)F)c3)c(F)c2)ccn1"
  measured_attribute: "solubility (mole fraction)"
  reported: 0.00375

* * *

Details: in acetone, 283.15 K

- smiles_notation: "CNC(=O)c1cc(Oc2ccc(NC(=O)Nc3ccc(Cl)c(C(F)(F)F)c3)c(F)c2)ccn1"
  solubility (mole fraction): 0.00173

* * *

Conditions: in acetonitrile, 308.15 K
measured_attribute: solubility (mole fraction)

- smiles_notation: "CNC(=O)c1cc(Oc2ccc(NC(=O)Nc3ccc(Cl)c(C(F)(F)F)c3)c(F)c2)ccn1"
  reported: 0.000381

* * *

Conditions: in n-propanol, 313.15 K

- smiles_notation: "CNC(=O)c1cc(Oc2ccc(NC(=O)Nc3ccc(Cl)c(C(F)(F)F)c3)c(F)c2)ccn1"
  solubility (mole fraction): 0.00172

* * *

Settings: in methanol, 283.15 K

- smiles_notation: "CNC(=O)c1cc(Oc2ccc(NC(=O)Nc3ccc(Cl)c(C(F)(F)F)c3)c(F)c2)ccn1"
  solubility (mole fraction): 0.000351

* * *

Settings: in ethanol, 293.15 K
measured_attribute: solubility (mole fraction)

- smiles_notation: "CNC(=O)c1cc(Oc2ccc(NC(=O)Nc3ccc(Cl)c(C(F)(F)F)c3)c(F)c2)ccn1"
  measured_attribute: "solubility (mole fraction)"
  reported: 0.000865

* * *

Conditions: in ethanol, 278.15 K
measured_attribute: solubility (mole fraction)

- smiles_notation: "CNC(=O)c1cc(Oc2ccc(NC(=O)Nc3ccc(Cl)c(C(F)(F)F)c3)c(F)c2)ccn1"
  reported: 0.000641

* * *

Details: in n-propanol, 283.15 K
measured_attribute: solubility (mole fraction)

- smiles_notation: "CNC(=O)c1cc(Oc2ccc(NC(=O)Nc3ccc(Cl)c(C(F)(F)F)c3)c(F)c2)ccn1"
  measured_attribute: "solubility (mole fraction)"
  reported: 0.000769

* * *

Conditions: in methanol, 288.15 K

- smiles_notation: "CNC(=O)c1cc(Oc2ccc(NC(=O)Nc3ccc(Cl)c(C(F)(F)F)c3)c(F)c2)ccn1"
  solubility (mole fraction): 0.00041

* * *

Conditions: in isopropanol, 303.15 K

- smiles_notation: "CNC(=O)c1cc(Oc2ccc(NC(=O)Nc3ccc(Cl)c(C(F)(F)F)c3)c(F)c2)ccn1"
  solubility (mole fraction): 0.00109

* * *

Conditions: in ethanol, 283.15 K

- smiles_notation: "CNC(=O)c1cc(Oc2ccc(NC(=O)Nc3ccc(Cl)c(C(F)(F)F)c3)c(F)c2)ccn1"
  solubility (mole fraction): 0.000677

* * *

Details: in n-propanol, 308.15 K
measured_attribute: solubility (mole fraction)

- smiles_notation: "CNC(=O)c1cc(Oc2ccc(NC(=O)Nc3ccc(Cl)c(C(F)(F)F)c3)c(F)c2)ccn1"
  measured_attribute: "solubility (mole fraction)"
  reported: 0.00147

* * *

Conditions: in methanol, 298.15 K

- smiles_notation: "CNC(=O)c1cc(Oc2ccc(NC(=O)Nc3ccc(Cl)c(C(F)(F)F)c3)c(F)c2)ccn1"
  solubility (mole fraction): 0.000475

* * *

Conditions: in ethanol, 298.15 K
measured_attribute: solubility (mole fraction)

- smiles_notation: "CNC(=O)c1cc(Oc2ccc(NC(=O)Nc3ccc(Cl)c(C(F)(F)F)c3)c(F)c2)ccn1"
  reported: 0.000911

* * *

Conditions: in methanol, 278.15 K

- smiles_notation: "CNC(=O)c1cc(Oc2ccc(NC(=O)Nc3ccc(Cl)c(C(F)(F)F)c3)c(F)c2)ccn1"
  solubility (mole fraction): 0.000315

* * *

Details: in acetone, 293.15 K

- smiles_notation: "CNC(=O)c1cc(Oc2ccc(NC(=O)Nc3ccc(Cl)c(C(F)(F)F)c3)c(F)c2)ccn1"
  solubility (mole fraction): 0.00247

* * *

Settings: in isopropanol, 313.15 K
measured_attribute: solubility (mole fraction)

- smiles_notation: "CNC(=O)c1cc(Oc2ccc(NC(=O)Nc3ccc(Cl)c(C(F)(F)F)c3)c(F)c2)ccn1"
  measured_attribute: "solubility (mole fraction)"
  reported: 0.00161

* * *

Conditions: in methanol, 293.15 K

- smiles_notation: "CNC(=O)c1cc(Oc2ccc(NC(=O)Nc3ccc(Cl)c(C(F)(F)F)c3)c(F)c2)ccn1"
  solubility (mole fraction): 0.000422

* * *

Conditions: in ethanol, 303.15 K
measured_attribute: solubility (mole fraction)

- smiles_notation: "CNC(=O)c1cc(Oc2ccc(NC(=O)Nc3ccc(Cl)c(C(F)(F)F)c3)c(F)c2)ccn1"
  measured_attribute: "solubility (mole fraction)"
  reported: 0.0011

* * *

Conditions: in acetone, 298.15 K
measured_attribute: solubility (mole fraction)

- smiles_notation: "CNC(=O)c1cc(Oc2ccc(NC(=O)Nc3ccc(Cl)c(C(F)(F)F)c3)c(F)c2)ccn1"
  reported: 0.00323

* * *

Conditions: in isopropanol, 283.15 K

- smiles_notation: "CNC(=O)c1cc(Oc2ccc(NC(=O)Nc3ccc(Cl)c(C(F)(F)F)c3)c(F)c2)ccn1"
  solubility (mole fraction): 0.000679

* * *

Conditions: in ethanol, 308.15 K
measured_attribute: solubility (mole fraction)

- smiles_notation: "CNC(=O)c1cc(Oc2ccc(NC(=O)Nc3ccc(Cl)c(C(F)(F)F)c3)c(F)c2)ccn1"
  reported: 0.00126
